The reported numbers originate from a melting point compilation (Tetko et al.).

Known melting point of a selection of molecules

Record excerpt, results attached:
{"columns": ["molecule", "melting point"],
 "data": [
  ["CNC1CCN(C2CCOCC2)CC1", "32 to 34 °C"],
  ["CCn1c(S)nnc1C1CC1", "< 17 °C"],
  ["CCN(CC)S(=O)(=O)c1ccc(N2CCCC2)c(C(=O)O)c1", "141 to 144 °C"],
  ["NNC(=O)CSc1nc2ccccc2o1", "169 to 171 °C"]
]}

Value lookup for melting point; key = COC(=O)c1cc(S(N)(=O)=O)ccc1O
136 to 138 °C

Any idea what melting point was measured for CC(N)c1ccccc1NS(=O)(=O)c1cccs1 (stereo not given) ?
167 to 169 °C

Given Cn1c(-c2ccccc2)c(C=O)c2ccccc21 , state its recorded melting point.
125 to 127 °C
